# TEST_SUMMARY: physchem
# RUN_CONDITIONS: water
MEASUREMENT_TYPE: solubility (mg/mL)
Your answer should be a plain number; it is taken to be in mg/mL.

Data request, read-out solubility, for O=c1[nH]cc(F)c(=O)[nH]1
10.2
